Type: in vivo, hairless mice
Settings: Day 15; 11 μmol of epothilone/kg of body weight i.v. (formulations: plus 100 μmol of Gd/kg); day 0 (about 30-35 g) normalized to 1
Description: A549 lung tumors were induced in hairless mice (4×10^6 cells/30 μl of full medium). Animal weights and tumor surface areas/volumes were determined, and in this case, the tumor surface area or the tumor volume (based on an ellipsoid of revolution) was calculated. Length and width of the tumor were measured with vernier calipers. After reaching the size of a pea, the treatment was begun. […] The animal weights and tumor sizes were measured over a period of 20 days after intravenous administration.
OBSERVED PROPERTY: Relative animal weights

{"CHEMICAL STRUCTURE": "CC[C@H]1C(=O)C(C)(C)[C@@H](O)CC(=O)O[C@H](/C(F)=C/c2ccccn2)C/C=C(/C)CCC[C@H](C)[C@@H]1O", "OBSERVED PROPERTY": "Relative animal weights", "MEASURED RESULT": 0.95}
{"CHEMICAL STRUCTURE": "C#CCC[C@H]1C(=O)C(C)(C)[C@@H](O)CC(=O)O[C@H](/C(C)=C/c2ccccn2)C/C=C(/C)CCC[C@H](C)[C@@H]1O", "OBSERVED PROPERTY": "Relative animal weights", "MEASURED RESULT": 0.97}
{"CHEMICAL STRUCTURE": "C=CC[C@H]1C(=O)C(C)(C)[C@@H](O)CC(=O)O[C@H](c2ccc3sc(C)nc3c2)C[C@@H]2O[C@]2(C)CCC[C@H](C)[C@@H]1O", "OBSERVED PROPERTY": "Relative animal weights", "MEASURED RESULT": 0.97}
{"CHEMICAL STRUCTURE": "C#CC[C@H]1C(=O)C(C)(C)[C@@H](O)CC(=O)O[C@H](/C(F)=C/c2csc(C)n2)C/C=C(/C)CCC[C@H](C)[C@@H]1O", "OBSERVED PROPERTY": "Relative animal weights", "MEASURED RESULT": 0.97}
{"CHEMICAL STRUCTURE": "C#CC[C@H]1C(=O)C(C)(C)[C@@H](O)CC(=O)O[C@H](/C(F)=C/c2coc(C)n2)C/C=C(/C)CCC[C@H](C)[C@@H]1O", "OBSERVED PROPERTY": "Relative animal weights", "MEASURED RESULT": 0.98}

Where these numbers come from: patent US20060257322A1
